B1: TRIM29 (parent)
chain: FAEKGELRKSIFSESRKPTVSIME

# Variants of: B1
# EXPERIMENTAL_DETAILS: protein stability index of a GFP-peptide fusion (GPS, HEK-293T) (PSI 1-6); higher = more stable;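 further: lentivirally expressed fusions sorted by FACS into six bins by GFP to DsRed ratio, PSI derived from sequencing read proportions per bin multiplied by bin number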
# CONDITION_LABEL: c terminus: a fixed tail appended
Entries and their protein stability index
Respond using a number only.

• A2F = 2.52

Ask | Give the reported protein stability index for this variant. S15Q
Reply | 2.1

Ask | Give the reported protein stability index for this variant. K9E
Reply | 1.84

Reference source for all entries: the supplement of paper PMC10567573
